Test system: NCI-H2023
procedure.text: relative viability (nuclei count vs DMSO), 5 days (fraction); higher = more cells survive
condition: first compound 0.04 µM
The class of a record is decided solely by its measured relative viability; consult c1 = under 0.4, c2 = from 0.4 up to 0.6, c3 = 0.6 and over

>  <compound>
O=C(O)c1ccc(-c2c[nH]c3ncc(-c4ccccc4)cc23)cc1C1CCCC1 + O=C(c1cc(Cc2n[nH]c(=O)c3ccccc23)ccc1F)N1CCN(C(=O)C2CC2)CC1 [Olaparib] (partner 8 µM)

>  <assigned.label>
c2

$$$$
>  <compound>
O=C(O)c1ccc(-c2c[nH]c3ncc(-c4ccccc4)cc23)cc1C1CCCC1 + CCNC(=O)c1noc(-c2cc(C(C)C)c(O)cc2O)c1-c1ccc(CN2CCOCC2)cc1 [Luminespib] (partner 0.01 µM)

>  <assigned.label>
c3

$$$$
>  <compound>
O=C(O)c1ccc(-c2c[nH]c3ncc(-c4ccccc4)cc23)cc1C1CCCC1 + Nc1nc2[nH]cc(CCc3ccc(C(=O)N[C@@H](CCC(=O)O)C(=O)O)cc3)c2c(=O)[nH]1 [Pemetrexed] (partner 0.2 µM)

>  <assigned.label>
c1

$$$$
>  <compound>
O=C(O)c1ccc(-c2c[nH]c3ncc(-c4ccccc4)cc23)cc1C1CCCC1 + COc1cccc2cc(-c3nc([C@H]4CC[C@H](C(=O)O)CC4)n4ncnc(N)c34)[nH]c12 [OSI-027] (partner 0.5 µM)

>  <assigned.label>
c2

$$$$
>  <compound>
O=C(O)c1ccc(-c2c[nH]c3ncc(-c4ccccc4)cc23)cc1C1CCCC1 + COc1cc2c(Oc3ccc(NC(=O)C4(C(=O)Nc5ccc(F)cc5)CC4)cc3F)ccnc2cc1OCCCN1CCOCC1 [Foretinib] (partner 0.25 µM)

>  <assigned.label>
c3

$$$$
>  <compound>
O=C(O)c1ccc(-c2c[nH]c3ncc(-c4ccccc4)cc23)cc1C1CCCC1 + Cc1nc(Nc2ncc(C(=O)Nc3c(C)cccc3Cl)s2)cc(N2CCN(CCO)CC2)n1 [Dasatinib] (partner 0.075 µM)

>  <assigned.label>
c2

$$$$
>  <compound>
O=C(O)c1ccc(-c2c[nH]c3ncc(-c4ccccc4)cc23)cc1C1CCCC1 + Cc1nc(NC(=O)N2CCC[C@H]2C(N)=O)sc1-c1ccnc(C(C)(C)C(F)(F)F)c1 [Alpelisib] (partner 2 µM)

>  <assigned.label>
c3

$$$$
>  <compound>
O=C(O)c1ccc(-c2c[nH]c3ncc(-c4ccccc4)cc23)cc1C1CCCC1 + Cc1cc(Nc2cc(N3CCN(C)CC3)nc(Sc3ccc(NC(=O)C4CC4)cc3)n2)n[nH]1 [Tozasertib] (partner 0.1 µM)

>  <assigned.label>
c1

$$$$

###

Reported relative viability values for the following molecules.
Tested on: NCI-H647
procedure.text: relative viability (nuclei count vs DMSO), 5 days (fraction); higher = more cells survive
condition: first compound 0.1581 µM
quantity.measured: relative viability

>  <molecule>
CC1(C)CCC(c2ccc(Cl)cc2)=C(CN2CCN(c3ccc(C(=O)NS(=O)(=O)c4ccc(N[C@H](CCN5CCOCC5)CSc5ccccc5)c(S(=O)(=O)C(F)(F)F)c4)cc3)CC2)C1 [Navitoclax] + NC(=O)Nc1cc(-c2cccc(F)c2)sc1C(=O)N[C@H]1CCCNC1 [AZD7762] (partner 0.2 µM)

>  <numeric.value>
0.343

$$$$
>  <molecule>
CC1(C)CCC(c2ccc(Cl)cc2)=C(CN2CCN(c3ccc(C(=O)NS(=O)(=O)c4ccc(N[C@H](CCN5CCOCC5)CSc5ccccc5)c(S(=O)(=O)C(F)(F)F)c4)cc3)CC2)C1 [Navitoclax] + CC(C)C[C@H](NC(=O)[C@H](Cc1ccccc1)NC(=O)c1cnccn1)B(O)O [Bortezomib] (partner 0.002 µM)

>  <numeric.value>
0.761

$$$$
>  <molecule>
CC1(C)CCC(c2ccc(Cl)cc2)=C(CN2CCN(c3ccc(C(=O)NS(=O)(=O)c4ccc(N[C@H](CCN5CCOCC5)CSc5ccccc5)c(S(=O)(=O)C(F)(F)F)c4)cc3)CC2)C1 [Navitoclax] + COc1cccc2cc(-c3nc([C@H]4CC[C@H](C(=O)O)CC4)n4ncnc(N)c34)[nH]c12 [OSI-027] (partner 0.5 µM)

>  <numeric.value>
0.611

$$$$
>  <molecule>
CC1(C)CCC(c2ccc(Cl)cc2)=C(CN2CCN(c3ccc(C(=O)NS(=O)(=O)c4ccc(N[C@H](CCN5CCOCC5)CSc5ccccc5)c(S(=O)(=O)C(F)(F)F)c4)cc3)CC2)C1 [Navitoclax] + C[C@]1(O)C[C@@H](c2nc(-c3ccc4ccc(-c5ccccc5)nc4c3)c3c(N)nccn32)C1 [Linsitinib] (partner 1 µM)

>  <numeric.value>
1.17

$$$$
>  <molecule>
CC1(C)CCC(c2ccc(Cl)cc2)=C(CN2CCN(c3ccc(C(=O)NS(=O)(=O)c4ccc(N[C@H](CCN5CCOCC5)CSc5ccccc5)c(S(=O)(=O)C(F)(F)F)c4)cc3)CC2)C1 [Navitoclax] + Cc1nc(NC(=O)N2CCC[C@H]2C(N)=O)sc1-c1ccnc(C(C)(C)C(F)(F)F)c1 [Alpelisib] (partner 2 µM)

>  <numeric.value>
1.14

$$$$
